Test system: 323965-272-R-J2-PDC complex spheroid growth, % test/control;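 also: compound exposure lasted 7 days starting three days after spheroid seeding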
Experiment: Anticancer human tumor 323965-272-R-J2-PDC patient-derived pancreatic carcinoma cell line growth inhibition [Asc]
Conditions: second compound 1 µM; first compound 0.0316 µM; hits give low values
Text: Multicellular complex tumor spheroid response to apoptosis pathway targeting inhibitors Alrizomadlin, Pelcitoclax, and Dasminapant in combination with a variety of drugs and investigational agents in selected tumor cell lines […] Compounds. […] If the clinical Cmax for an agent had not been determined, the highest concentration tested was 10 microM. […]
# if measured viability, T/C < 80%: TRUE  # else: FALSE

[in] Strictly below 80%: is that where viability, T/C of COc1c(OCCCN2CCOCC2)ccc2c3n(c(=NC(=O)c4cnc(N)nc4)nc12)CCN3 + CNC(C)C(=O)NC1CN(S(=O)(=O)c2cccc(S(=O)(=O)N3CCC4CCC(C(=O)NC(c5ccccc5)c5ccccc5)N4C(=O)C(NC(=O)C(C)NC)C3)c2)CCC2CCC(C(=O)NC(c3ccccc3)c3ccccc3)N2C1=O sits?
[out] TRUE

[in] Strictly below 80%: is that where viability, T/C of O=C(c1ccc(F)c(F)c1Nc1ccc(I)cc1F)N1CC(O)([C@@H]2CCCCN2)C1 + CNC(C)C(=O)NC1CN(S(=O)(=O)c2cccc(S(=O)(=O)N3CCC4CCC(C(=O)NC(c5ccccc5)c5ccccc5)N4C(=O)C(NC(=O)C(C)NC)C3)c2)CCC2CCC(C(=O)NC(c3ccccc3)c3ccccc3)N2C1=O sits?
[out] TRUE

[in] Strictly below 80%: is that where viability, T/C of Cn1ncnc1[C@H]1c2n[nH]c(=O)c3cc(F)cc(c23)N[C@@H]1c1ccc(F)cc1 + Cc1c(S(C)(=O)=O)c(-c2cc(F)cc(N3CCN(c4ccc(NS(=O)(=O)c5ccc(NC(CCN6CCC(C(=O)OCCCP(=O)(O)O)CC6)CSc6ccccc6)c(S(=O)(=O)C(F)(F)F)c5)cc4)CC3)c2)c(-c2ccc(Cl)cc2)n1C(C)C sits?
[out] FALSE

[in] Strictly below 80%: is that where viability, T/C of C#Cc1c(F)ccc2cc(O)cc(-c3ncc4c(N5CC6CCC(C5)N6)nc(OCC56CCCN5CC(F)C6)nc4c3F)c12 (configuration not stated) + CNC(C)C(=O)NC1CN(S(=O)(=O)c2cccc(S(=O)(=O)N3CCC4CCC(C(=O)NC(c5ccccc5)c5ccccc5)N4C(=O)C(NC(=O)C(C)NC)C3)c2)CCC2CCC(C(=O)NC(c3ccccc3)c3ccccc3)N2C1=O sits?
[out] FALSE

[in] Strictly below 80%: is that where viability, T/C of CCN1CCN(Cc2ccc(Nc3ncc(F)c(-c4cc(F)c5nc(C)n(C(C)C)c5c4)n3)nc2)CC1 + CNC(C)C(=O)NC1CN(S(=O)(=O)c2cccc(S(=O)(=O)N3CCC4CCC(C(=O)NC(c5ccccc5)c5ccccc5)N4C(=O)C(NC(=O)C(C)NC)C3)c2)CCC2CCC(C(=O)NC(c3ccccc3)c3ccccc3)N2C1=O sits?
[out] FALSE

[in] Strictly below 80%: is that where viability, T/C of C=CC(=O)N1CCN(c2nc(=O)n(-c3c(C)ccnc3C(C)C)c3nc(-c4c(O)cccc4F)c(F)cc23)C(C)C1 (configuration not stated) + Cc1c(S(C)(=O)=O)c(-c2cc(F)cc(N3CCN(c4ccc(NS(=O)(=O)c5ccc(NC(CCN6CCC(C(=O)OCCCP(=O)(O)O)CC6)CSc6ccccc6)c(S(=O)(=O)C(F)(F)F)c5)cc4)CC3)c2)c(-c2ccc(Cl)cc2)n1C(C)C sits?
[out] TRUE

[in] Strictly below 80%: is that where viability, T/C of CCN1CCN(Cc2ccc(Nc3ncc(F)c(-c4cc(F)c5nc(C)n(C(C)C)c5c4)n3)nc2)CC1 + Cc1c(S(C)(=O)=O)c(-c2cc(F)cc(N3CCN(c4ccc(NS(=O)(=O)c5ccc(NC(CCN6CCC(C(=O)OCCCP(=O)(O)O)CC6)CSc6ccccc6)c(S(=O)(=O)C(F)(F)F)c5)cc4)CC3)c2)c(-c2ccc(Cl)cc2)n1C(C)C sits?
[out] FALSE

Numbers sourced from PubChem BioAssay AID1963425.
